test_system: UniProt:P48736
Sequence (P48736 whole entry, species assumed): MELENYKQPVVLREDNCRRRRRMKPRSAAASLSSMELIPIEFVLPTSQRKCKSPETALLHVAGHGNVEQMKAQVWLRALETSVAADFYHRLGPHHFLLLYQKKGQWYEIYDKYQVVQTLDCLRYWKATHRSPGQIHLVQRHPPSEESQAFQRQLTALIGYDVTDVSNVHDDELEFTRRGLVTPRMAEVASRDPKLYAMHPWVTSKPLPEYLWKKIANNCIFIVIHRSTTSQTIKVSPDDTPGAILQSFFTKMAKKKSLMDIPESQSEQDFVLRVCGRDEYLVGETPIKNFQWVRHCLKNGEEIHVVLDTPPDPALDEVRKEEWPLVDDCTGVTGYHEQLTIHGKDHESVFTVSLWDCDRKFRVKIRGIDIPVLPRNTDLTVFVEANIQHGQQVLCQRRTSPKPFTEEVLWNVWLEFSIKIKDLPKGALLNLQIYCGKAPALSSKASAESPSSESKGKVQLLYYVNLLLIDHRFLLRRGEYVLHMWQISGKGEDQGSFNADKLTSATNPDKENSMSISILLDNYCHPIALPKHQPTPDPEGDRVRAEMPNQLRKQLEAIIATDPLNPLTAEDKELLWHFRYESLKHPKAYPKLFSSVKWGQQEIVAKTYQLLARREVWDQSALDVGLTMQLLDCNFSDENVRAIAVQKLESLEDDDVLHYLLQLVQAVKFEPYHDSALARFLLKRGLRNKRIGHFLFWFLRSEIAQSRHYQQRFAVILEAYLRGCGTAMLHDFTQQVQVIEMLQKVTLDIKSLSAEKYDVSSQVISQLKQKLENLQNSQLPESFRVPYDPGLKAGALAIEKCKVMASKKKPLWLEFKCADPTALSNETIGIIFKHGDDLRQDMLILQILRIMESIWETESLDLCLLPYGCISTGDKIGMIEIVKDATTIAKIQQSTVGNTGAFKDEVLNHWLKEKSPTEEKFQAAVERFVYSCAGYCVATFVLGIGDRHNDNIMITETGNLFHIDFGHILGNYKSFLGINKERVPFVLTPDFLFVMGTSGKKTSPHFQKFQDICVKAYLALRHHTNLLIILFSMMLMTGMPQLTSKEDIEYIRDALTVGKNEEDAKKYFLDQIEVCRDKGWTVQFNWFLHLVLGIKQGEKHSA
test_description: PI3K-gamma fluorescence polarization assay
Format: biochemical
condition_set: PI3Kγ Avg. IC50
pIC50: −log10 of the molar value.
measured_property: pIC50

{"columns": ["compound", "pIC50"],
 "data": [
  ["CNC(=O)Nc1ccc2c(c1)C(=O)/C(=C/c1c(-c3c(C)n[nH]c3C)[nH]c3ccc(OC)cc13)O2", 8.33],
  ["O=C1C(=Cc2c(-c3ccccc3)n(CCC3CCNCC3)c3ccccc23)Oc2cc(O)cc(O)c21", 5.31],
  ["O=C1/C(=C/c2c(-c3ccc(F)cc3)[nH]c3ccccc23)Oc2c1ccc(O)c2O", 5.71],
  ["CCc1cc(OC)cc2c(C=C3Oc4cc(O)cc(O)c4C3=O)cn(CCCC#N)c12", 6.86],
  ["COc1ccc2[nH]cc(/C=C3\\Oc4ccc(NC(=O)NC(C)C)cc4C3=O)c2c1", 5.79]
]}

A: COc1ccc2c(c1)c(/C=C1\Oc3cc(O)ccc3C1=O)c(C(=O)N1CCOCC1)n2CCN1CCN(C)CC1
B: COc1ccc2c(c1)c(C=C1Oc3cc(O)cc(O)c3C1=O)c(C)n2CCCN1CCOCC1
Please compare: A and B . Report which one has the smaller pIC50 value. Answer by stating the label of the chosen item.
A
(A: 6.05, B: 7.12)

1: COc1ccc2c(c1)c(C=C1Oc3cc(O)cc(O)c3C1=O)cn2CCCCN(C)C
2: COc1ccc2[nH]cc(/C=C3\Oc4cc(O)ccc4C3=O)c2c1
Please state the entry with greater pIC50 among 1 and 2 . Answer by stating the label of the chosen item.
2

* * *

test_system: PI3K-alpha (Homo sapiens, UniProt P42336)
Sequence (P42336 whole entry, species assumed): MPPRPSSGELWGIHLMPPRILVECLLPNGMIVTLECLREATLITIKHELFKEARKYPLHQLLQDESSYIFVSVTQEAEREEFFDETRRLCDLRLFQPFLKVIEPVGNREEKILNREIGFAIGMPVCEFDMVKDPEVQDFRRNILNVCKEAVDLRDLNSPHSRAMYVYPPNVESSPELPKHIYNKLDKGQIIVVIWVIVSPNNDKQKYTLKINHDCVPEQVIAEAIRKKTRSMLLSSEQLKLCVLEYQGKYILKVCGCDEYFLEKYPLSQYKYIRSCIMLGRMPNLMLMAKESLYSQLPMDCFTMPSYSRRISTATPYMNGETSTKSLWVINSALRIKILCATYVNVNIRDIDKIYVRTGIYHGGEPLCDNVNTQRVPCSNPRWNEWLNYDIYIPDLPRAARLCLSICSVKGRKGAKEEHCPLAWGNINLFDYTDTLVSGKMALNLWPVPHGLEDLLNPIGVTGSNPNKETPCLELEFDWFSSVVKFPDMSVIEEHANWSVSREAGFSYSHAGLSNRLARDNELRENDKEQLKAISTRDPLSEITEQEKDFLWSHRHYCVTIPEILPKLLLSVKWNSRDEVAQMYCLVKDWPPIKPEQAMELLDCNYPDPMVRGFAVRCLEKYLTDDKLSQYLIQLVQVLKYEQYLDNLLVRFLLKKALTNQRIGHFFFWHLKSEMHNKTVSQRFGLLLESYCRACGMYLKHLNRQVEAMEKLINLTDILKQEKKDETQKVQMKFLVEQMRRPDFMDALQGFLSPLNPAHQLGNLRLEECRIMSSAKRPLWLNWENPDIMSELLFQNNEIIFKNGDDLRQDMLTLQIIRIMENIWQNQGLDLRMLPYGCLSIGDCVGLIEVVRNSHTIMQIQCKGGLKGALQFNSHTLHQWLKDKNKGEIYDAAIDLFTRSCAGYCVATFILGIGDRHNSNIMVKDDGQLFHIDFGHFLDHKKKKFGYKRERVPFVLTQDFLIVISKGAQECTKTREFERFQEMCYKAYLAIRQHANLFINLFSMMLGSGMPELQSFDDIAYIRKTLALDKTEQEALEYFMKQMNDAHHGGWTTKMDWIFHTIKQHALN
Sequence (P27986 whole entry partner, species assumed): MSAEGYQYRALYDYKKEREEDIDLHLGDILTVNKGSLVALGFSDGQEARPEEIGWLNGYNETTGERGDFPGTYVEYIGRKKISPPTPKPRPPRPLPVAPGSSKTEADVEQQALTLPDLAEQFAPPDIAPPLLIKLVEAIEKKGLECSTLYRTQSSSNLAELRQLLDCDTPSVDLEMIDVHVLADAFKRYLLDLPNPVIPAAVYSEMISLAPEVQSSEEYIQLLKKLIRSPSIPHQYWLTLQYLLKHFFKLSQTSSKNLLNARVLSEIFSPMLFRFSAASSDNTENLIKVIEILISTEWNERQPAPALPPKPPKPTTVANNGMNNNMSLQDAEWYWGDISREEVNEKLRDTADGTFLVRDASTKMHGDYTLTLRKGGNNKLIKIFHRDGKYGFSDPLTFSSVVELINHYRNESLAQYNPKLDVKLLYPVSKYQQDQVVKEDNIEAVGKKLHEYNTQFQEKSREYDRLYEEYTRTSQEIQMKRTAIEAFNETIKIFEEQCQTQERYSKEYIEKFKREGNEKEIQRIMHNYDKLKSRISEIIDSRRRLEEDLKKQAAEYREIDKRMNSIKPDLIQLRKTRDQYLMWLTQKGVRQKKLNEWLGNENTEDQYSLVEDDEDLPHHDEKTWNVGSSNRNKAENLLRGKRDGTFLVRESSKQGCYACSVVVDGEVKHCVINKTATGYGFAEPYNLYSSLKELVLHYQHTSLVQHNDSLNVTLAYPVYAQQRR
test_description: PI3K-alpha fluorescence polarization assay
Assay type: biochemical
condition_set: read-out: PI3Kα Avg. IC50
pIC50: −log10 of the molar value.
measured_property: pIC50

# example entries with known answers
{"columns": ["compound", "assay_value"],
 "data": [
  ["COc1ccc(-c2c(C=C3Oc4cc(O)cc(O)c4C3=O)c3ccccc3n2C)cc1", 5.99],
  ["COc1ccc2c(c1)c(C=C1Oc3c(ccc(O)c3O)C1=O)cn2C", 5.94]
]}

P: COc1ccc2c(c1)c(C=C1Oc3cc(O)cc(O)c3C1=O)cn2CCCCN1CCOCC1
Q: COc1cc(F)c2[nH]c(-c3c(C)nn(C)c3C)c(/C=C3\Oc4ccc(NC(=O)Nc5ccc(C(=O)N(C)CCN(C)C)cc5)cc4C3=O)c2c1
Please compare: P and Q . Report which one has the smaller pIC50 value. Answer by stating the label of the chosen item.
P

A: CNC(=O)Nc1ccc2c(c1)C(=O)/C(=C/c1c(-c3c(C)nn(C)c3C)[nH]c3c(C)cc(OC)cc13)O2
B: COc1ccc2[nH]c(-c3c(C)nn(C)c3C)c(/C=C3\Oc4ccc(NC(=O)Nc5ccc(C(=O)N6CCN(C)C(C)C6)cc5)cc4C3=O)c2c1 (stereo not shown)
Please compare: A and B . Report which one has the smaller pIC50 value. Answer by stating the label of the chosen item.
A

* * *

test_system: UniProt:P48736
test_description: PI3K-gamma fluorescence polarization assay
Format: biochemical
condition_set: PI3Kγ Avg. IC50
measured_property: IC50 (nM)

# example entries with known answers
{"columns": ["chemical_structure", "IC50 [nM]"],
 "data": [
  ["O=C1/C(=C/c2c[nH]c3ccc(Br)cc23)Oc2cc(O)cc(O)c21", 1620],
  ["COc1cc(OC)c2c(c1)O/C(=C\\c1c(-c3ccccc3)n(C)c3ccccc13)C2=O", 1990],
  ["COc1ccc2[nH]c(-c3ccccc3)c(/C=C3\\Oc4cc(O)ccc4C3=O)c2c1", 13.5]
]}

a: O=C1C(=Cc2c(-c3ccncc3)[nH]c3ccccc23)Oc2cc(O)cc(O)c21
b: CC(=O)Nc1cccc(-c2cccc3c2c(/C=C2\Oc4cc(O)cc(O)c4C2=O)cn3C)c1
c: COc1ccc2c(c1)c(/C=C1\Oc3cc(O)cc(O)c3C1=O)c(C1CC1)n2CCN1CCC(O)CC1
d: CNC(=O)Nc1ccc2c(c1)C(=O)/C(=C/c1c(C)n(CCN3CCN(C)CC3)c3ccc(OC)cc13)O2
Sort by IC50, descending. Give the order by naming the labels one after another as requested.
a, b, d, c

I: COc1ccc2c(c1)c(/C=C1\Oc3cc(O)c(Cl)cc3C1=O)c(C)n2CCCN(C)C
II: CNC(=O)Nc1ccc(-c2cccc3c2c(/C=C2\Oc4cc(O)cc(O)c4C2=O)cn3C)cc1
Please state the entry with greater IC50 among I and II . Answer by stating the label of the chosen item.
I

P: COc1ccc2c(c1)c(/C=C1\Oc3ccc(NC(=O)Nc4ccc(NCCN(C)C)cc4)cc3C1=O)c(C)n2CCN1CCN(C)CC1
Q: COc1ccc2c(c1)c(/C=C1\Oc3cc(O)cc(O)c3C1=O)c(C(F)(F)F)n2CCO
R: COc1cc(F)c2[nH]c(-c3c(C)nn(C)c3C)c(/C=C3\Oc4ccc(NC(=O)Nc5ccc(C(=O)N(C)CCN(C)C)cc5)cc4C3=O)c2c1
Sort by IC50, descending. Give the order by naming the labels one after another as requested.
P, Q, R
(P: 1720 nM, Q: 22 nM, R: 2.35 nM)

1: CNC(=O)Nc1ccc2c(c1)C(=O)/C(=C/c1cn(CCCN3CCCCC3)c3ccc(OC)cc13)O2
2: COc1ccc2[nH]c(-c3c(C)nn(C)c3C)c(/C=C3\Oc4ccc(NC(=O)Nc5ccc(C(=O)N6CCN(C(C)C)CC6)cc5)cc4C3=O)c2c1
Please state the entry with greater IC50 among 1 and 2 . Answer by stating the label of the chosen item.
1
